Target: Transient receptor potential cation channel subfamily A member 1 (Homo sapiens)
Sequence (O75762 whole entry): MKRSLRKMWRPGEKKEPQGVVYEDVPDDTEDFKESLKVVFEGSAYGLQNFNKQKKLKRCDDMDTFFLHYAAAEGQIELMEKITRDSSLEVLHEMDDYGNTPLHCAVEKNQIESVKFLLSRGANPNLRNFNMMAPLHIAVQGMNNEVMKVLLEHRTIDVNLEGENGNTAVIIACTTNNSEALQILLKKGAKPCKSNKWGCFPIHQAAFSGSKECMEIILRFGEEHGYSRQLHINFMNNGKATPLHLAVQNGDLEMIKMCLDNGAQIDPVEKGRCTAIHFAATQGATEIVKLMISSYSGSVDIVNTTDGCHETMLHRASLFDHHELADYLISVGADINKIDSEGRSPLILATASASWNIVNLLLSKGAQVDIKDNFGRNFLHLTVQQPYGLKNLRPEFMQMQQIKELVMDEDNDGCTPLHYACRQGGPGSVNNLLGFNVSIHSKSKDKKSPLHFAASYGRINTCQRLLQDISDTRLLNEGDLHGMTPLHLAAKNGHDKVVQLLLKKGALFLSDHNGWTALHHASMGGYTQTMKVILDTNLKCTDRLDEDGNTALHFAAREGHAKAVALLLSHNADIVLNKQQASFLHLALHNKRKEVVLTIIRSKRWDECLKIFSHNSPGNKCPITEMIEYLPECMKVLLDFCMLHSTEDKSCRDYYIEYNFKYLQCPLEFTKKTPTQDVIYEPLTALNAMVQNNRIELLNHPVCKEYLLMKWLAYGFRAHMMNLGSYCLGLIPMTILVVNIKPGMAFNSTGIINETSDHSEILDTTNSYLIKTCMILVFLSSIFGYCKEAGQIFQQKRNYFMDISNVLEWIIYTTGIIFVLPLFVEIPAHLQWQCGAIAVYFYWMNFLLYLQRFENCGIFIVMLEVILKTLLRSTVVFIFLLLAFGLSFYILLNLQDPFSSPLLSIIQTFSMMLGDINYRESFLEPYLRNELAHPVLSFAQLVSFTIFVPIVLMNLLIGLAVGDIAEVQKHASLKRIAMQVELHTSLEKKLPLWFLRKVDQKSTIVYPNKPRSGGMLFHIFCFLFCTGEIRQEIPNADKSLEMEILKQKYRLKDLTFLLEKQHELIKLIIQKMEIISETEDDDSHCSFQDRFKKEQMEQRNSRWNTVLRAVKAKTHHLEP
Assay: Antagonist activity at human TRPA1 expressed in HEK293-TREx cells assessed as change in calcium level by Fluo-4NW assay
Labelling field: enter 1 if recorded IC50 is less than 1000 nM. Enter -1 if it equals or exceeds that cut-off.

Report whether reported IC50 is lower than 1000 nM (strictly) for `O=C(Nc1cc(NCCc2ccccc2)cc(C(F)(F)F)c1)c1cccs1`
-1

# repeat for `CCCNc1cc(NC(=O)c2c(F)cccc2F)cc(C(F)(F)F)c1`
1

Please answer likewise for `CCCNc1cc(NC(=O)c2cccnc2)cc(C(F)(F)F)c1`
1

Moving on to `CCNc1cc(NC(=O)c2c(F)cccc2F)cc(C(F)(F)F)c1`
1
